These data points were gathered from the CombiSolv-Exp solvation set (Vermeire and Green 2021).

test: solvent given as SMILES; conditions: in CCCCCCCC
Output fulfilled for records whose solvation free energy, 298 K is lower than -3 kcal/mol, not fulfilled for records at or above -3 kcal/mol.

Below, 5 compounds whose answers are already recorded.
> print(dat)
       compound          group
1         C=CCC  not fulfilled
2  Oc1ccc(O)cc1      fulfilled
3        CCCC=O      fulfilled
4           C=C  not fulfilled
5  CCCCC(C)(C)O      fulfilled

Does the reported solvation free energy, 298 K of `O=[N+]([O-])c1cccc(O)c1` stay below -3 kcal/mol? fulfilled

Does the reported solvation free energy, 298 K of CCC(O)C(C)C (stereo not drawn) stay below -3 kcal/mol? fulfilled

Does the reported solvation free energy, 298 K of `COC(C)=O` stay below -3 kcal/mol? not fulfilled

Does the reported solvation free energy, 298 K of `CCCC(C)C` stay below -3 kcal/mol? fulfilled

Does the reported solvation free energy, 298 K of `CCCCCO` stay below -3 kcal/mol? fulfilled

Does the reported solvation free energy, 298 K of `CCCC(=O)OCC` stay below -3 kcal/mol? fulfilled

Does the reported solvation free energy, 298 K of `CN(C)C(=O)Nc1ccc(Cl)cc1` stay below -3 kcal/mol? fulfilled

Does the reported solvation free energy, 298 K of `CCCCOC(C)=O` stay below -3 kcal/mol? fulfilled

Does the reported solvation free energy, 298 K of `CCC(C)(C)O` stay below -3 kcal/mol? fulfilled

Does the reported solvation free energy, 298 K of `FS(F)(F)(F)(F)F` stay below -3 kcal/mol? not fulfilled

Does the reported solvation free energy, 298 K of `O=S=O` stay below -3 kcal/mol? not fulfilled

Does the reported solvation free energy, 298 K of `CC(C)CC(C)(C)C` stay below -3 kcal/mol? fulfilled

Does the reported solvation free energy, 298 K of `O=C(C(=O)c1ccccc1)c1ccccc1` stay below -3 kcal/mol? fulfilled

Does the reported solvation free energy, 298 K of `O=[N+]([O-])c1ccc(O)c([N+](=O)[O-])c1` stay below -3 kcal/mol? fulfilled

Does the reported solvation free energy, 298 K of `CCC=O` stay below -3 kcal/mol? not fulfilled

Does the reported solvation free energy, 298 K of `CC[N+](=O)[O-]` stay below -3 kcal/mol? fulfilled

Does the reported solvation free energy, 298 K of `CC(=O)CC(=O)c1ccccc1` stay below -3 kcal/mol? fulfilled

Does the reported solvation free energy, 298 K of `c1ccc2c(c1)Cc1ccccc1O2` stay below -3 kcal/mol? fulfilled

Does the reported solvation free energy, 298 K of `CC(C)OC(C)C` stay below -3 kcal/mol? fulfilled

Does the reported solvation free energy, 298 K of `O=C=O` stay below -3 kcal/mol? not fulfilled

Does the reported solvation free energy, 298 K of `c1cc2c3c(cccc3c1)CC2` stay below -3 kcal/mol? fulfilled

Does the reported solvation free energy, 298 K of `CC(C)CO` stay below -3 kcal/mol? fulfilled

Does the reported solvation free energy, 298 K of `[N-]=[N+]=O` stay below -3 kcal/mol? not fulfilled

---

assay: solvent given as SMILES; conditions: in CCOC(C)=O
measure: solvation free energy, 298 K (kcal/mol)
Numbers only, in kcal/mol.

// worked examples, solvation free energy, 298 K included
> print(dat)
                                   molecule  data.value
1                   CN(C)C(=O)Nc1ccc(Cl)cc1       -13.1
2  O=C(O)c1cc([N+](=O)[O-])cc([N+](=O)[O-])c1       -14.2
3                                    C=CCCC       -2.96
4  CCC(C)(C)C(=O)OC1CC(C)C=C2C=CC(C)C(CCC3CC(O)CC(=O)O3)C21 (configuration not stated)       -25.1
5                                     ClCCl       -4.04

Hello, I would appreciate it if you could give solvation free energy, 298 K for each entry below.
1. c1ccccc1
2. CN(C)C(=O)Nc1ccc(Cl)c(Cl)c1

-4.42
-14.6

---

test: solvent given as SMILES; details: in CCCCCCCC
measure: solvation free energy, 298 K (kcal/mol)
One number for each entry, in kcal/mol.

// worked examples, solvation free energy, 298 K included
> print(dat)
                          molecule  readout.unit  data.value
1     c1ccc2c(c1)-c1cccc3cccc-2c13      kcal/mol       -11.6
2  CCCC(C)(O)CC (stereo not given)      kcal/mol        -5.4
3                            ClCCl      kcal/mol       -2.86
4                           ClCCCl      kcal/mol        -3.7

Now for another entry.
Using known records, supply solvation free energy, 298 K for `CCC[N+](=O)[O-]` -3.95
